- TARGET OR TEST SYSTEM: Histamine H3 receptor (Homo sapiens, UniProt Q9Y5N1); note: assay procedure not described here
- Sequence (Q9Y5N1 whole entry): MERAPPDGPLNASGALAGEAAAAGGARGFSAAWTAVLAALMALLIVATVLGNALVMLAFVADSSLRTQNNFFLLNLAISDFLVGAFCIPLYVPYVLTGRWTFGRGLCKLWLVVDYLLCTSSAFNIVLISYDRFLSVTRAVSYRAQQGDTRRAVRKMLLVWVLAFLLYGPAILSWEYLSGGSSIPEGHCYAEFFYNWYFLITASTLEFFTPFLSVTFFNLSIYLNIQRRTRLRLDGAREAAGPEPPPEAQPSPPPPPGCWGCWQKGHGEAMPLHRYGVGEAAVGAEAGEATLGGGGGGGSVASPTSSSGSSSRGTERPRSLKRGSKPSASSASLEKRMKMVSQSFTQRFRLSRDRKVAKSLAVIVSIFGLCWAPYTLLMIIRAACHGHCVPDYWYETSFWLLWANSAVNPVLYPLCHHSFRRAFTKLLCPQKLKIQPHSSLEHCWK
Give measured AC50 for each item. Keep answers brief.

{"MOLECULE": "CC(C(=O)O)c1ccc(N2CC=CC2)c(Cl)c1 (stereo not given) [PIRPROFEN]", "TARGET OR TEST SYSTEM": "Histamine H3 receptor (Homo sapiens, UniProt Q9Y5N1)", "AC50": "> 10 µM"}
{"MOLECULE": "C[C@H]1O[C@H](O[C@H]2[C@H](O)[C@@H](O)[C@@H](O[C@H]3[C@H](O)[C@@H](O)C(O)O[C@@H]3CO)O[C@@H]2CO)[C@H](O)[C@@H](O)[C@@H]1N[C@H]1C=C(CO)[C@@H](O)[C@H](O)[C@H]1O (stereo not given in full) [ACARBOSE]", "TARGET OR TEST SYSTEM": "Histamine H3 receptor (Homo sapiens, UniProt Q9Y5N1)", "AC50": "> 30 µM"}
{"MOLECULE": "CCNC(C)Cc1cccc(C(F)(F)F)c1 (stereo not given) [FENFLURAMINE]", "TARGET OR TEST SYSTEM": "Histamine H3 receptor (Homo sapiens, UniProt Q9Y5N1)", "AC50": "> 10 µM"}
{"MOLECULE": "COC(=O)N[C@H](C(=O)N[C@@H](Cc1ccccc1)[C@@H](O)CN(Cc1ccc(-c2ccccn2)cc1)NC(=O)[C@@H](NC(=O)OC)C(C)(C)C)C(C)(C)C [ATAZANAVIR]", "TARGET OR TEST SYSTEM": "Histamine H3 receptor (Homo sapiens, UniProt Q9Y5N1)", "AC50": "> 10 µM"}
{"MOLECULE": "OCCN1CCN(CCCN2c3ccccc3C=Cc3ccccc32)CC1 [OPIPRAMOL]", "TARGET OR TEST SYSTEM": "Histamine H3 receptor (Homo sapiens, UniProt Q9Y5N1)", "AC50": "> 30 µM"}
{"MOLECULE": "CC(C(=O)O)c1ccc(C(=O)c2cccs2)cc1 (stereo not given) [SUPROFEN]", "TARGET OR TEST SYSTEM": "Histamine H3 receptor (Homo sapiens, UniProt Q9Y5N1)", "AC50": "> 10 µM"}

Look at each molecule and report its AC50.
1. N[C@@H](CSCC(=O)O)C(=O)O [CARBOCYSTEINE]
2. CC[C@H](C)C(=O)O[C@H]1C[C@H](O)C=C2C=C[C@H](C)[C@H](CC[C@@H](O)C[C@@H](O)CC(=O)O)[C@H]21 [PRAVASTATIN]
3. O=C(O)CCCc1ccccc1 [PHENYLBUTANOIC ACID]
4. CCCCCN(C)CCC(O)(P(=O)(O)O)P(=O)(O)O [IBANDRONIC ACID]
5. Cc1cccc(C)c1OCC(C)N (stereo not given) [MEXILETINE]
6. CCN(CC)CCNC(=O)c1cc(Cl)c(N)cc1OC [METOCLOPRAMIDE]
7. COc1c(C)c2c(c(O)c1C/C=C(\C)CCC(=O)OCCN1CCOCC1)C(=O)OC2 [MYCOPHENOLATE MOFETIL]
8. CC(=O)NS(=O)(=O)c1ccc(N)cc1 [SULFACETAMIDE]

["> 30 µM", "> 30 µM", "> 10 µM", "> 30 µM", "> 30 µM", "> 10 µM", "> 30 µM", "> 10 µM"]

Look at each molecule and report its AC50.
1. COc1cc2c(cc1OC)C(=O)C(CC1CCN(Cc3ccccc3)CC1)C2 (stereo not given) [DONEPEZIL]
2. COC(=O)[C@H]1[C@@H](OC(=O)c2ccccc2)C[C@@H]2CC[C@H]1N2C [COCAINE]
3. Cc1cc(-c2ccccc2)nnc1NCCN1CCOCC1 [MINAPRINE]

1. 2.5 µM
2. > 30 µM
3. > 10 µM
